ASSAYED SYSTEM: CCR6 (Homo sapiens, UniProt P51684)
Construct: Human CD4+CCR6+CXCR3-T cells were isolated from leukopak from healthy donors; endogenous in cells
Sequence (P51684 whole entry): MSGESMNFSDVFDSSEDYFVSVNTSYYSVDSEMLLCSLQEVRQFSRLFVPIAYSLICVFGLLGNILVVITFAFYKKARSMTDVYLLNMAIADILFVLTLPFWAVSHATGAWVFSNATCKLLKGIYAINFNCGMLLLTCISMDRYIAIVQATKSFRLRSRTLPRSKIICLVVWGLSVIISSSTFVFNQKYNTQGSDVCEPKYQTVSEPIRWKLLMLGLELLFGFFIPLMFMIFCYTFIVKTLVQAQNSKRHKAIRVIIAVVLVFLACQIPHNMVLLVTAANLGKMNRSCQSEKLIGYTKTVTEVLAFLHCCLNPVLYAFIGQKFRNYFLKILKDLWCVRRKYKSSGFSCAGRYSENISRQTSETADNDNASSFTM
PROCEDURE DETAILS: CCR6+ T Cell Chemotaxis Assay
Assay type: cell-based
ASSAY CONTEXT: Table 13; T cell chemotaxis compared to neutrophil chemotaxis; NS = not selective for T cell chemotaxis compared to neutrophil chemotaxis
Output met for T Cell Chemotaxis Selectivity not less than 70; output not met otherwise.

Please review the entries below; each comes with its answer.
- COMPOUND: "Cc1cn(C)nc1[C@H](Nc1c(Nc2ccnc(C(=O)N3CCOCC3)c2O)c(=O)c1=O)C1(C)CCCC1 [Example 6]"
  ASSAYED SYSTEM: "CCR6 (Homo sapiens, UniProt P51684)"
  CLASS LABEL: "not met"
- COMPOUND: "Cc1nc([C@H](Nc2c(Nc3ccnc(C(=O)N(C)C)c3O)c(=O)c2=O)C(C)(C)C)c(C)s1 [Example 25]"
  ASSAYED SYSTEM: "CCR6 (Homo sapiens, UniProt P51684)"
  CLASS LABEL: "met"
- COMPOUND: "COc1cn(C)nc1[C@H](Nc1c(Nc2ccnc(C(=O)N(C)C(C)C)c2O)c(=O)c1=O)C1(C)CCCC1 [Example 11]"
  ASSAYED SYSTEM: "CCR6 (Homo sapiens, UniProt P51684)"
  CLASS LABEL: "met"

Determine whether measured T Cell Chemotaxis Selectivity meets or exceeds 70 for CN(C)C(=O)c1nccc(Nc2c(N[C@@H](c3nn(C)cc3Cl)C3(C)CCCC3)c(=O)c2=O)c1O [Example 8]
not met

Determine whether measured T Cell Chemotaxis Selectivity meets or exceeds 70 for Cc1nc([C@H](Nc2c(Nc3ccnc(C(=O)N(C)C)c3O)c(=O)c2=O)[C@]2(C)CC(F)(F)CO2)c(C)s1 [Example 38]
met

Determine whether measured T Cell Chemotaxis Selectivity meets or exceeds 70 for CCc1cn(C)nc1[C@H](Nc1c(Nc2ccnc(C(=O)N(C)C)c2O)c(=O)c1=O)C1(C)CC1 [Example 21]
not met

Reference source for all entries: patent US11708360B2
